test system: NCI-H460; assay: Cytotoxicity against human NCI-H460 cells after 4 days by MTT assay; assay type: cell-based; details: NCI-H460, 96 h
Measure: IC50

# input I'd like to know its IC50. The compound in question is `O=C(CP(=O)(O)O)OCCCc1cccc(Oc2ccccc2)c1`
# output 86 µM

# input May I ask what IC50 has been recorded for `O=C(CCCCc1cccc(Oc2ccccc2)c1)CP(=O)(O)O` ?
# output 191 µM

# input What does the data say about its IC50? Entry: `O=C(CS(=O)(=O)O)NCCCc1cccc(Oc2ccccc2)c1`
# output > 300 µM

# input Recorded IC50 for `O=P(O)(O)CS(=O)(=O)NCCCc1cccc(Oc2ccccc2)c1` , please?
# output > 300 µM

# input I would be grateful if you could share the reported IC50 for `O=C(O)CC(=O)NCCCc1cccc(Oc2ccccc2)c1` .
# output 306 µM

# input Given `O=C(CP(=O)(O)O)NCCCCc1cccc(Oc2ccccc2)c1` , state its recorded IC50.
# output > 300 µM

# input I am curious: what IC50 value has been reported for `O=C(CP(=O)(O)O)NCCc1cccc(Oc2ccccc2)c1` ?
# output > 300 µM

# input Could you tell me which IC50 is on file for `O=C(CP(=O)([O-])[O-])NCCCc1cccc(Oc2ccccc2)c1.[K+].[K+]` ?
# output > 300 µM

# input Tell me the measured IC50 of `O=C(CP(=O)(O)O)N(O)CCCc1cccc(Oc2ccccc2)c1` , please.
# output > 300 µM

# input What value of IC50 has been recorded for this entry: `CC(C)(C(=O)NCCCc1cccc(Oc2ccccc2)c1)P(=O)(O)O`
# output > 300 µM

# input Fill in: IC50 of `Cc1ccc(-c2ccc(CCCN(O)C(=O)CP(=O)(O)O)cc2)cc1` is ___
# output 284 µM

###

Molecular target: 4,4'-diapophytoene synthase (Staphylococcus aureus)
Sequence (A9JQL9 whole entry): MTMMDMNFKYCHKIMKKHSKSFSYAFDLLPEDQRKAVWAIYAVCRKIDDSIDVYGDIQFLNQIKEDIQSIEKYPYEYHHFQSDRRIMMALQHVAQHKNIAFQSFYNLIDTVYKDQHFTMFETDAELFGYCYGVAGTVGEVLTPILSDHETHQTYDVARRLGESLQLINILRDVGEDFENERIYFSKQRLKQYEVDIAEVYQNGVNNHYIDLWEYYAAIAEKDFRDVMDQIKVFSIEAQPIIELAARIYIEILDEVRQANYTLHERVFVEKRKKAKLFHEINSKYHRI
Could you please report measured Ki for the items listed next?
Just the number please, in nM, no unit attached.

# input Name the recorded Ki for `O=C(CP(=O)(O)O)N(O)CCCc1cccc(Oc2ccc(Cl)c(Cl)c2)c1` .
# output 320

# input Could you tell me which Ki is on file for `O=C(CP(=O)(O)O)N(O)CCCc1cccc(Oc2ccccc2)c1` ?
# output 320

# input Look up Ki for this compound: O=C(NO)C(CCCc1cccc(Oc2ccccc2)c1)P(=O)(O)O (stereo unspecified)
# output 4100

# input Which measured Ki value corresponds to `O=C(CP(=O)(O)O)OCCCc1cccc(Oc2ccccc2)c1` ?
# output 5700

# input // returns reported Ki for input `O=C(CP(=O)(O)O)NCCc1cccc(Oc2ccccc2)c1`
# output 1500

# input Recorded Ki of `O=C(CP(=O)(O)O)NCCCc1cccc(Oc2ccc(Cl)cc2)c1` , please.
# output 70

# input # lookup: Ki of `CC(C)(C(=O)NCCCc1cccc(Oc2ccccc2)c1)P(=O)(O)O`
# output 960

# input GET /values?readout=Ki&item= `O=C(CP(=O)(O)O)NCCCc1ccc(-c2ccccc2)cc1`
# output 810

# input Which Ki value is on record for `O=C(CS(=O)(=O)O)NCCCc1cccc(Oc2ccccc2)c1` ?
# output 810

# input Look up Ki: `O=C(CP(=O)(O)O)NCCCc1cccc(Oc2ccc(Cl)c(Cl)c2)c1`
# output 30

# input What value of measured Ki is listed for `O=C(CP(=O)(O)O)NCCCCc1cccc(Oc2ccccc2)c1` ?
# output 5300

# input Value lookup for Ki; key = `CN(CCCc1cccc(Oc2ccccc2)c1)C(=O)CP(=O)(O)O`
# output 910

###

Give pIC50 for every item shown.
biological target: Squalene synthase (Homo sapiens, UniProt P37268); test: Inhibition of human recombinant squalene synthase expressed in Escherichia coli cells assessed as conversion of [3H]FPP to squalene by liquid scintillation
Sequence (P37268 whole entry): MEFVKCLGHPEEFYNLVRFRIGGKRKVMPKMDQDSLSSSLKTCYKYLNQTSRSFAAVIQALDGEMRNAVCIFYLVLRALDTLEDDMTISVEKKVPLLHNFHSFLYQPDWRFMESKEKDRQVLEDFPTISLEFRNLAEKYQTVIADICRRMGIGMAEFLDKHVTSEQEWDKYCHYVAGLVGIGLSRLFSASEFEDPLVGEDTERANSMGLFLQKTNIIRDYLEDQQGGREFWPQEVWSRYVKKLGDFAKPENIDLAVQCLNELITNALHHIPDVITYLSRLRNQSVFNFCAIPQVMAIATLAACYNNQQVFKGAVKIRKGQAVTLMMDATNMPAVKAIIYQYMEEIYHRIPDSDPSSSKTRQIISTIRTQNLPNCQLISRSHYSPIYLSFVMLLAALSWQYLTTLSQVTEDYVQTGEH
Reminder that pIC50 is minus the log10 of a molar concentration.

# input # lookup: pIC50 of `O=C(CP(=O)(O)O)N(O)CCCc1cccc(Oc2ccc(Cl)c(Cl)c2)c1`
# output 5.80

# input For the compound shown here, `O=C(CP(=O)(O)O)NCCc1cccc(Oc2ccccc2)c1` , give the reported pIC50.
# output 5.21

# input Requested read-out: pIC50. Entry: `O=C(CP(=O)([O-])[O-])NCCCc1cccc(Oc2ccccc2)c1.[K+].[K+]`
# output 6.28

# input Endpoint output: pIC50 of O=C(NO)C(CCCc1cccc(Oc2ccccc2)c1)P(=O)(O)O (configuration not stated) . Value?
# output 6.52

# input Param item = `O=C(CP(=O)(O)O)N(O)CCCc1cccc(Oc2ccccc2)c1` ; retrieve measured pIC50.
# output 4.52

# input Param item = `O=C(CCCCc1cccc(Oc2ccccc2)c1)CP(=O)(O)O` ; retrieve measured pIC50.
# output 4.70

# input State the recorded pIC50 for this entry: `CC(C)(C(=O)NCCCc1cccc(Oc2ccccc2)c1)P(=O)(O)O`
# output 6.28

# input Reported pIC50 for `O=C(CP(=O)(O)O)NCCCc1cccc(Oc2ccc(Cl)cc2)c1` : what is it?
# output 5.96

# input compound: `CN(CCCc1cccc(Oc2ccccc2)c1)C(=O)CP(=O)(O)O` ; wanted: its pIC50
# output 6.00

# input Value lookup for pIC50; key = `O=C(CP(=O)(O)O)NCCCc1cccc(Oc2ccc(Cl)c(Cl)c2)c1`
# output 6.13

###

Please go through the items and note down their pIC50.
tested on: MCF7; test: Cytotoxicity against human MCF7 cells after 4 days by MTT assay; type: cell-based; details: MCF7, 96 h
pIC50: −log10 of the molar value.

# input Which value of pIC50 has been reported for `O=C(CP(=O)(O)O)OCCCc1cccc(Oc2ccccc2)c1` in the records?
# output 4.16

# input Param item = `O=C(CP(=O)(O)O)NCCCCc1cccc(Oc2ccccc2)c1` ; retrieve measured pIC50.
# output < 3.52

# input What value of pIC50 has been reported for the following compound? `O=P(O)(O)CS(=O)(=O)NCCCc1cccc(Oc2ccccc2)c1`
# output < 3.52

# input Entry `O=C(CP(=O)(O)O)NCCCc1cccc(Oc2ccc(Cl)cc2)c1` has what pIC50?
# output < 3.52

# input For `Cc1ccc(-c2ccc(CCCN(O)C(=O)CP(=O)(O)O)cc2)cc1` , what is its reported pIC50?
# output 3.58

# input I would be grateful if you could share the reported pIC50 for `O=C(CP(=O)([O-])[O-])NCCCc1cccc(Oc2ccccc2)c1.[K+].[K+]` .
# output < 3.52

# input Fill in: pIC50 of `O=C(CCCCc1cccc(Oc2ccccc2)c1)CP(=O)(O)O` is ___
# output 3.87

# input State the recorded pIC50 for this entry: `CC(C)(C(=O)NCCCc1cccc(Oc2ccccc2)c1)P(=O)(O)O`
# output < 3.52

# input Tell me the measured pIC50 of `O=C(CP(=O)(O)O)NCCCc1ccc(-c2ccccc2)cc1` , please.
# output < 3.52

# input What value of pIC50 has been reported for the following compound? `O=C(O)CC(=O)NCCCc1cccc(Oc2ccccc2)c1`
# output 3.55

# input Which pIC50 value belongs to `O=C(CS(=O)(=O)O)NCCCc1cccc(Oc2ccccc2)c1` ?
# output < 3.52
